assay: In vitro stability in heparin stabilised mouse plasma; assay type: in vitro ADME; details: heparinised mouse plasma, 37° C., read-out: half-life t½ of degradation
ASSAY READOUT: half-life at 0.1 mg/mL (h)
Enter your answer as a number in h; do not include the unit.

Item Ac-RYYRWKKKKKKK-NH2 [Compound 1, Ac-RYYRWKKKKKKK-NH2] has what recorded half-life at 0.1 mg/mL?
5.97

Source listed as patent US7550425B2.
